- System: HCT116 MTAP null cells
- MEASUREMENT NOTES: HCT116 proliferation assay, MTAP null cells (CellTiter-Glo, 6 days)
- Format: cell-based
- SETTINGS: HCT116-MTAP null, 144 h, read-out: Protif_ HCT116-MTAP null IC50
- Experimental: HCT116 MTAP null and WT cells were seeded in 96-well tissue culture plates in RPMI 1640 media + 10% fetal bovine serum. Plates were incubated overnight at 37° C. and 5% CO2. […] Effects on cell viability were measured with the CellTiter-Glo® Luminescent Cell Viability Assay (Promega) per manufacturer’s recommendation. Assay plates were read on an EnVision™ Multilabel Reader using the Ultra-Sensitive luminescence module.
Labelling: IC50 reported below 300 nM becomes satisfied; at or above becomes not satisfied.

Req: Please state whether IC50 is below 300 nM for Cc1cc2cc(C(=O)N(Cc3cncc(F)c3)Cc3ccccc3F)ccc2nc1N [Example 590]
Resp: not satisfied

Req: Please state whether IC50 is below 300 nM for COC(=O)c1ccc(CN(C(=O)c2ccc3nc(N)c(C)cc3c2)[C@H](C)c2ncccc2F)nc1 [Example 403]
Resp: satisfied

Req: Please state whether IC50 is below 300 nM for Cc1cc2cc(C(=O)N(Cc3ccc(C(F)(F)F)cn3)Cc3ncccc3F)cnc2nc1N [Example 537]
Resp: not satisfied

Req: Please state whether IC50 is below 300 nM for Cc1cc2cc(C(=O)N(Cc3ccc(Cl)cn3)[C@H](C)c3ncccn3)ccc2nc1N [Example 504]
Resp: satisfied

---

- System: HCT116 MTAP null cells
- MEASUREMENT NOTES: HCT116 proliferation assay, MTAP null cells (CellTiter-Glo, 6 days)
- Assay type: cell-based
- SETTINGS: HCT116-MTAP null, 144 h, read-out: Protif_ HCT116-MTAP null IC50
Would you mind telling me the reported IC50 of each entry?
Kindly write the number and append the unit.

Req: For the compound Cc1cc2cc(C(=O)N(Cc3ccc(C(F)(F)F)nn3)[C@@H]3CCCn4ccnc43)ccc2nc1N (single isomer, unassigned) , give its reported IC50.
Resp: 98 nM

Req: For the compound Cc1cc2cc(C(=O)N(CCOC(F)(F)F)Cc3ccc(C(F)(F)F)cn3)ccc2nc1N , give its reported IC50.
Resp: 994 nM

Req: For the compound C[C@H](c1ncccn1)N(Cc1ccc(Br)nn1)C(=O)c1ccc2nc(N)c(Br)cc2c1 , give its reported IC50.
Resp: 80 nM

Req: For the compound Cc1cc2cc(C(=O)N(Cc3ccc(C(F)(F)F)cn3)CC(C)C3CC3)ccc2nc1N (stereo not drawn) , give its reported IC50.
Resp: 78 nM

Req: For the compound C[C@H](c1ncccn1)N(Cc1ccc(Cl)cn1)C(=O)c1cnc2nc(N)c(I)cc2c1 , give its reported IC50.
Resp: 116 nM

Req: For the compound Cc1cc2cc(C(=O)N(Cc3ccc(C(F)(F)F)cn3)[C@@H]3CCOc4ccc(F)nc43)ccc2nc1N (single isomer, unassigned) , give its reported IC50.
Resp: 13 nM

Req: For the compound Cc1cc2cc(C(=O)N(Cc3cnc(C#N)cn3)[C@H](C)c3ncccn3)ccc2nc1N , give its reported IC50.
Resp: 454 nM

Req: For the compound CO[C@@H]1CCOC[C@H]1N(Cc1ccc(C(F)(F)F)cn1)C(=O)c1ccc2nc(N)c(C)cc2c1 (single isomer, unassigned) [Example 782] , give its reported IC50.
Resp: 17 nM

Req: For the compound Cc1cc2cc(C(=O)N(Cc3ccnc4[nH]ccc34)Cc3ccnn3C)ccc2nc1N , give its reported IC50.
Resp: 110 nM

Req: For the compound CCOc1ccc(CN(C(=O)c2cnc3nc(N)c(I)cc3c2)[C@H](C)c2ncccn2)nn1 , give its reported IC50.
Resp: 437 nM

Req: For the compound Cc1cc2cc(C(=O)N(Cc3cccc(-n4ccnc4)c3)Cc3ccc(C(F)(F)F)cn3)ccc2nc1N , give its reported IC50.
Resp: 180 nM

Req: For the compound Cc1cc2cc(C(=O)N(Cc3ccc(C(=O)N(C)C)cn3)Cc3ncccc3F)ccc2nc1N , give its reported IC50.
Resp: 623 nM

Req: For the compound Cc1cc2cc(C(=O)N(Cc3ccc(C(F)(F)F)cn3)[C@@H](C)c3ccc(F)cn3)ccc2nc1N (single isomer, unassigned) , give its reported IC50.
Resp: 734 nM

Req: For the compound Cc1cc2cc(C(=O)N(Cc3ccc(Br)cn3)CC(C)C)ccc2nc1N , give its reported IC50.
Resp: 385 nM

Req: For the compound Cc1cc2cc(C(=O)N(Cc3ccc(C(F)(F)F)cn3)C3CCCc4nn(C)cc43)ccc2nc1N (stereo not drawn) , give its reported IC50.
Resp: 145 nM

Req: For the compound C[C@H](c1ncccc1F)N(Cc1ccc(Br)nn1)C(=O)c1cnc2nc(N)c(Br)cc2c1 , give its reported IC50.
Resp: 319 nM

Req: For the compound Cc1cc2cc(C(=O)N(Cc3ccc(C(F)(F)F)cn3)[C@@H]3CCOc4ncccc43)ccc2nc1N (single isomer, unassigned) , give its reported IC50.
Resp: 78 nM

Req: For the compound Cc1cc2cc(C(=O)N(Cc3cnc(C(F)(F)F)cn3)[C@H](C)c3ncccn3)ccc2nc1N (single isomer, unassigned) , give its reported IC50.
Resp: 168 nM
